Reported self-cleavage by item:
B1: CPEB3 Ribozyme (parent)
chain: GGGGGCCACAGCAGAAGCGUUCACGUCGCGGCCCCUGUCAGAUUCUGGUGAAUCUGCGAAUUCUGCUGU

Variants of: B1
RUN DESCRIPTION: self-cleavage, relative activity (ratio to wild type); higher = more cleavage; co-transcriptional
Returns: the value as a bare number; no unit string appended.

Solved entries (count: 10):
G4C G19A: 0.0646
A59C U69G: 0.824
G31A C45G: 0.761
C6U C63U: 1.01
A23G G68C: 0.971
G3A G28U: 0.104
A51U: 0.994
C29G G68A: 0.845
G19A C39U: 0.158
U43C C63G: 0.648

What does the data say about its self-cleavage? Entry: U43G A51G
0.901

What does the data say about its self-cleavage? Entry: G4C G58A
0.278

What does the data say about its self-cleavage? Entry: G4U G19C
0.0957

What does the data say about its self-cleavage? Entry: C24A C54U
0.854

What does the data say about its self-cleavage? Entry: C12G A59C
0.339

What does the data say about its self-cleavage? Entry: G25C A60G
0.207

What does the data say about its self-cleavage? Entry: G19U U21C
0.218

What does the data say about its self-cleavage? Entry: A15C C54G
0.567

What does the data say about its self-cleavage? Entry: C54U U67C
1.01

What does the data say about its self-cleavage? Entry: G1C C29G
0.106

Cited source for all entries: the RNAGym collection of RNA variant scans (doi:10.7554/elife.80360)
